- system name: UniProt:P08659
- Sequence (P08659 whole entry): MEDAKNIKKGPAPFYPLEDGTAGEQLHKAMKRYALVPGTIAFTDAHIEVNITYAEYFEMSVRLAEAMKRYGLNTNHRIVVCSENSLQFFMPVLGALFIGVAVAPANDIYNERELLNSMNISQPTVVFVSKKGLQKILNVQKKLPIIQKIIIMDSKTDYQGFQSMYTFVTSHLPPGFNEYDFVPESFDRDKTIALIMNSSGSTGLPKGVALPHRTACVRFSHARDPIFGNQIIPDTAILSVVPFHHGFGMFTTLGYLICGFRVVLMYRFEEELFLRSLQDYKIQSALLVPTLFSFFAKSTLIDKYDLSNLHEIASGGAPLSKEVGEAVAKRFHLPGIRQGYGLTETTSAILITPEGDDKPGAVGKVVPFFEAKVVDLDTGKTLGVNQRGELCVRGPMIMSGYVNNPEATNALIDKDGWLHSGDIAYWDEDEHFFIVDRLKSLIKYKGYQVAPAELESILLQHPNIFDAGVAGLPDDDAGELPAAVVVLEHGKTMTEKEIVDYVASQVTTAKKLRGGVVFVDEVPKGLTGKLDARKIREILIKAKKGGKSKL
- test description: firefly luciferase enzyme inhibitors, dose response, biochemical, luminescence (AID 1891)
Active and inactive are the calls of the source. Cut-off read from the data, not from the text of the source: actives have a measured EC50 and inactives only a lower limit.
value kind: EC50

# annotated cases, reported EC50 shown
compound	EC50
O=C(Cn1cccc1)N1CCN(c2ccc(F)cc2)CC1	> 112 µM (not active)
Cc1ccc(NC(=O)N2CCC(c3ccccc3)C2)cc1C (centres undefined)	> 112 µM (not active)
O=C1/C(=C\c2ccc([N+](=O)[O-])cc2)CCc2ccccc21	8.13 µM (active)
COc1ccc(-c2nn(-c3ccccc3)cc2C(=O)O)cc1OC	> 112 µM (not active)
COc1ccccc1C(=O)Nc1cnc(O)nc1O	> 112 µM (not active)

Please indicate EC50 recorded for `COc1ccc2c(c1)N(C(=O)CSc1n[nH]c(C)n1)C(C)(C)C=C2C`
> 112 µM (not active)

Please indicate EC50 recorded for `COc1c(/C=N/NC(=O)c2ccccc2O)c(CCN(C)C(C)=O)cc2c1OCO2`
> 112 µM (not active)

Please indicate EC50 recorded for O=C(O)CCCCCCC1C(=O)NC(=O)N1CCC(O)C1CCCCC1 (centres undefined)
> 112 µM (not active)

Please indicate EC50 recorded for `CCCOC(=O)c1ccc(NC(=O)c2ccoc2C)cc1`
4.18 µM (active)
